- System: KRAS PDC tumor spheroids (HUVEC+MSC), viability
- Protocol summary: Anticancer human tumor 254851-301-R-J1-PDC patient-derived colon carcinoma cell line growth inhibition [KRAS2]
- Assay conditions: second compound 0.1 µM; first compound 1 µM; stronger effect = lower value

# Compound, viability, T/C (%)
data = [
    ("CCN1CCN(Cc2ccc(Nc3ncc(F)c(-c4cc(F)c5nc(C)n(C(C)C)c5c4)n3)nc2)CC1 + CC1OCC2(CCN(c3cnc(Sc4ccnc(N)c4Cl)c(N)n3)CC2)C1N", 35.3),
    ("COC(=O)c1ccc2c(C(=Nc3ccc(N(C)C(=O)CN4CCN(C)CC4)cc3)c3ccccc3)c(O)[nH]c2c1 + CNCc1ccccc1-c1csc(C(C)Nc2nc(C)nc3cc(OC)c(OC)cc23)c1", 91),
    ("CCN1CCN(Cc2ccc(Nc3ncc(F)c(-c4cc(F)c5nc(C)n(C(C)C)c5c4)n3)nc2)CC1 + COc1cc2nc(C)nc(NC(C)c3cc(N)cc(C(F)(F)F)c3)c2cc1OC1CCOC1", 35.7),
    ("CC1OCC2(CCN(c3cnc(Sc4ccnc(N)c4Cl)c(N)n3)CC2)C1N (stereo unspecified) + C=CC(=O)N1CCN(c2nc(OCC3CCCN3C)nc3c2CCN(c2cccc4cccc(C)c24)C3)CC1CC#N", 85.3),
    ("CC1OCC2(CCN(c3cnc(Sc4ccnc(N)c4Cl)c(N)n3)CC2)C1N (stereo unspecified) + COc1cc2nc(C)nc(NC(C)c3cc(N)cc(C(F)(F)F)c3)c2cc1OC1CCOC1", 78.3),
    ("CCNC(=O)CC1N=C(c2ccc(Cl)cc2)c2cc(OC)ccc2-n2c(C)nnc21 (stereo unspecified) + C=CC(=O)N1CCN(c2nc(=O)n(-c3c(C)ccnc3C(C)C)c3nc(-c4c(O)cccc4F)c(F)cc23)C(C)C1", 91),
    ("CC1COCCN1c1cc(-c2ccnn2C)c2ccnc(-c3ccn[nH]3)c2n1 (stereo unspecified) + CNCc1ccccc1-c1csc(C(C)Nc2nc(C)nc3cc(OC)c(OC)cc23)c1", 36),
    ("CCNC(=O)CC1N=C(c2ccc(Cl)cc2)c2cc(OC)ccc2-n2c(C)nnc21 (stereo unspecified) + C=CC(=O)N1CCN(c2nc(OCC3CCCN3C)nc3c2CCN(c2cccc4cccc(C)c24)C3)CC1CC#N", 78.9),
    ("Cn1nccc1Nc1nccc(-c2cc3c(s2)C(C)(C)N(CCN2CCOCC2)C3=O)n1 + CNCc1ccccc1-c1csc(C(C)Nc2nc(C)nc3cc(OC)c(OC)cc23)c1", 89.8),
    ("CC1COCCN1c1cc(-c2ccnn2C)c2ccnc(-c3ccn[nH]3)c2n1 (stereo unspecified) + COc1cc2nc(C)nc(NC(C)c3cc(N)cc(C(F)(F)F)c3)c2cc1OC1CCOC1", 36.8),
    ("CCN1CCN(Cc2ccc(Nc3ncc(F)c(-c4cc(F)c5nc(C)n(C(C)C)c5c4)n3)nc2)CC1 + CNCc1ccccc1-c1csc(C(C)Nc2nc(C)nc3cc(OC)c(OC)cc23)c1", 40.4),
]

====

- Test system: KRAS PDC tumor spheroids (HUVEC+MSC), viability
- Protocol summary: Anticancer human tumor 254851-301-R-J1-PDC cell line growth inhibition [KRAS2];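 further: spheroids exposed to compounds for seven days before readout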;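 on viability, T/C: 100% = DMSO vehicle control luminescence of the spheroids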
- Assay conditions: second compound 0.316 µM; first compound 0.001 µM; stronger effect = lower value

# Compound, Result units, viability, T/C
rows = [
    ("CC(C)n1nc(-c2ccc3oc(N)nc3c2)c2c(N)ncnc21 + C=CC(=O)N1CCN(c2nc(=O)n(-c3c(C)ccnc3C(C)C)c3nc(-c4c(O)cccc4F)c(F)cc23)C(C)C1", "%", 104),
    ("CN(C)C/C=C/C(=O)Nc1cc2c(Nc3ccc(F)c(Cl)c3)ncnc2cc1O[C@H]1CCOC1 + COc1cc2nc(C)nc(NC(C)c3cc(N)cc(C(F)(F)F)c3)c2cc1OC1CCOC1", "%", 102),
    ("CC(=O)Nc1cccc(-n2c(=O)n(C3CC3)c(=O)c3c(Nc4ccc(I)cc4F)n(C)c(=O)c(C)c32)c1 + COc1cc2nc(C)nc(NC(C)c3cc(N)cc(C(F)(F)F)c3)c2cc1OC1CCOC1", "%", 94),
]

====

- System: KRAS PDC tumor spheroids (HUVEC+MSC), viability
- Protocol summary: Anticancer human tumor 254851-301-R-J1-PDC cell line growth inhibition [KRAS2];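 further: spheroids exposed to compounds for seven days before readout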
- Assay conditions: curve of first compound; second compound 0.1 µM

# Compound, Result units, Bound type, IC50
measured = [
    ("CC1(C)CCC(CN2CCN(c3ccc(C(=O)NS(=O)(=O)c4ccc(NCC5CCOCC5)c([N+](=O)[O-])c4)c(Oc4cnc5[nH]ccc5c4)c3)CC2)=C(c2ccc(Cl)cc2)C1 + C=CC(=O)N1CCN(c2nc(OCC3CCCN3C)nc3c2CCN(c2cccc4cccc(C)c24)C3)CC1CC#N", "µM", ">", 10),
    ("CC(C)n1nc(-c2ccc3oc(N)nc3c2)c2c(N)ncnc21 + COc1cc2nc(C)nc(NC(C)c3cc(N)cc(C(F)(F)F)c3)c2cc1OC1CCOC1", "µM", "=", 0.0207),
    ("CN(C)C/C=C/C(=O)Nc1cc2c(Nc3ccc(F)c(Cl)c3)ncnc2cc1O[C@H]1CCOC1 + CC1OCC2(CCN(c3cnc(Sc4ccnc(N)c4Cl)c(N)n3)CC2)C1N", "µM", ">", 0.1),
    ("CC1OCC2(CCN(c3cnc(Sc4ccnc(N)c4Cl)c(N)n3)CC2)C1N (stereo not given) + C=CC(=O)N1CCN(c2nc(=O)n(-c3c(C)ccnc3C(C)C)c3nc(-c4c(O)cccc4F)c(F)cc23)C(C)C1", "µM", ">", 10),
    ("CCNC(=O)CC1N=C(c2ccc(Cl)cc2)c2cc(OC)ccc2-n2c(C)nnc21 (stereo not given) + CNCc1ccccc1-c1csc(C(C)Nc2nc(C)nc3cc(OC)c(OC)cc23)c1", "µM", ">", 10),
    ("COc1cc2nccc(Oc3ccc(NC(=O)C4(C(=O)Nc5ccc(F)cc5)CC4)cc3)c2cc1OC + CC1OCC2(CCN(c3cnc(Sc4ccnc(N)c4Cl)c(N)n3)CC2)C1N", "µM", "=", 9.27),
    ("CC(C)NCC(C(=O)N1CCN(c2ncnc3c2C(C)CC3O)CC1)c1ccc(Cl)cc1 (stereo not given) + COc1cc2nc(C)nc(NC(C)c3cc(N)cc(C(F)(F)F)c3)c2cc1OC1CCOC1", "µM", ">", 10),
    ("CN(C)C/C=C/C(=O)Nc1cc2c(Nc3ccc(F)c(Cl)c3)ncnc2cc1O[C@H]1CCOC1 + C=CC(=O)N1CCN(c2nc(=O)n(-c3c(C)ccnc3C(C)C)c3nc(-c4c(O)cccc4F)c(F)cc23)C(C)C1", "µM", ">", 0.1),
    ("CC1(C)CCC(CN2CCN(c3ccc(C(=O)NS(=O)(=O)c4ccc(NCC5CCOCC5)c([N+](=O)[O-])c4)c(Oc4cnc5[nH]ccc5c4)c3)CC2)=C(c2ccc(Cl)cc2)C1 + CNCc1ccccc1-c1csc(C(C)Nc2nc(C)nc3cc(OC)c(OC)cc23)c1", "µM", ">", 10),
    ("CC(C)NCC(C(=O)N1CCN(c2ncnc3c2C(C)CC3O)CC1)c1ccc(Cl)cc1 (stereo not given) + C=CC(=O)N1CCN(c2nc(=O)n(-c3c(C)ccnc3C(C)C)c3nc(-c4c(O)cccc4F)c(F)cc23)C(C)C1", "µM", ">", 10),
    ("CC(=O)OC12COC1CC(O)C1(C)C(=O)C(O)C3=C(C)C(OC(=O)C(O)C(NC(=O)OC(C)(C)C)c4ccccc4)CC(O)(C(OC(=O)c4ccccc4)C21)C3(C)C (stereo not given) + COc1cc2nc(C)nc(NC(C)c3cc(N)cc(C(F)(F)F)c3)c2cc1OC1CCOC1", "µM", "=", 0.18),
    ("COC(=O)c1ccc2c(C(=Nc3ccc(N(C)C(=O)CN4CCN(C)CC4)cc3)c3ccccc3)c(O)[nH]c2c1 + CC1OCC2(CCN(c3cnc(Sc4ccnc(N)c4Cl)c(N)n3)CC2)C1N", "µM", ">", 10),
    ("COc1cc2nccc(Oc3ccc(NC(=O)C4(C(=O)Nc5ccc(F)cc5)CC4)cc3)c2cc1OC + C=CC(=O)N1CCN(c2nc(=O)n(-c3c(C)ccnc3C(C)C)c3nc(-c4c(O)cccc4F)c(F)cc23)C(C)C1", "µM", ">", 10),
    ("Cn1nccc1Nc1nccc(-c2cc3c(s2)C(C)(C)N(CCN2CCOCC2)C3=O)n1 + C=CC(=O)N1CCN(c2nc(OCC3CCCN3C)nc3c2CCN(c2cccc4cccc(C)c24)C3)CC1CC#N", "µM", "=", 3.14),
    ("CC(C)NCC(C(=O)N1CCN(c2ncnc3c2C(C)CC3O)CC1)c1ccc(Cl)cc1 (stereo not given) + CC1OCC2(CCN(c3cnc(Sc4ccnc(N)c4Cl)c(N)n3)CC2)C1N", "µM", ">", 10),
    ("CC(C)n1nc(-c2ccc3oc(N)nc3c2)c2c(N)ncnc21 + CC1OCC2(CCN(c3cnc(Sc4ccnc(N)c4Cl)c(N)n3)CC2)C1N", "µM", "=", 0.0175),
    ("CC1COCCN1c1cc(-c2ccnn2C)c2ccnc(-c3ccn[nH]3)c2n1 (stereo not given) + C=CC(=O)N1CCN(c2nc(=O)n(-c3c(C)ccnc3C(C)C)c3nc(-c4c(O)cccc4F)c(F)cc23)C(C)C1", "µM", "=", 0.299),
    ("CCNC(=O)CC1N=C(c2ccc(Cl)cc2)c2cc(OC)ccc2-n2c(C)nnc21 (stereo not given) + COc1cc2nc(C)nc(NC(C)c3cc(N)cc(C(F)(F)F)c3)c2cc1OC1CCOC1", "µM", "=", 3.47),
    ("COC(=O)c1ccc2c(C(=Nc3ccc(N(C)C(=O)CN4CCN(C)CC4)cc3)c3ccccc3)c(O)[nH]c2c1 + C=CC(=O)N1CCN(c2nc(=O)n(-c3c(C)ccnc3C(C)C)c3nc(-c4c(O)cccc4F)c(F)cc23)C(C)C1", "µM", ">", 10),
    ("CC(C)n1nc(-c2ccc3oc(N)nc3c2)c2c(N)ncnc21 + C=CC(=O)N1CCN(c2nc(=O)n(-c3c(C)ccnc3C(C)C)c3nc(-c4c(O)cccc4F)c(F)cc23)C(C)C1", "µM", "=", 0.0191),
]
